biological target: UniProtKB Q13547; test: Inhibition of recombinant human C-terminal His/FLAG-tagged HDAC1 (1 to end residues) expressed in sf9 insect cells using Boc-Lys(Ac)-AMC as substrate incubated for 60 mins by fluorescence assay
Sequence (Q13547 whole entry): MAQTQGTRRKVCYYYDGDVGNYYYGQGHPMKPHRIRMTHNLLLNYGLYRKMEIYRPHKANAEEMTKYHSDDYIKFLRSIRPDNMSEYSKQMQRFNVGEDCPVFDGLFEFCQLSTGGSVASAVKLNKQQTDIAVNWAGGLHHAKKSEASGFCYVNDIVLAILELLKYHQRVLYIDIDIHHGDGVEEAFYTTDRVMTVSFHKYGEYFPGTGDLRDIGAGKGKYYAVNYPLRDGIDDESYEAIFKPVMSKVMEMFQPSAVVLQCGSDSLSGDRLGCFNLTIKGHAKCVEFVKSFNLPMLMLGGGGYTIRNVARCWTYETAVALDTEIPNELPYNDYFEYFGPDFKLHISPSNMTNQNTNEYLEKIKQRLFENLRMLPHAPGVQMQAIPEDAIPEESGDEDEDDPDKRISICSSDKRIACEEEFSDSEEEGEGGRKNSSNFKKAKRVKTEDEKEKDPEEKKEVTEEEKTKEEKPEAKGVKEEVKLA
metric: IC50 (nM)

In the examples that follow, each entry is paired with its recorded IC50.
smiles_text	IC50 / nM
O=C(CCCCCCC(=O)Nc1n[nH]c2cc(-c3ccccc3Cl)ccc12)NO	2.7
COc1ccc(-c2ccc3c(NC(=O)CCCCCCC(=O)NO)n[nH]c3c2)cc1	2.7
COc1cccc(-c2ccc3c(NC(=O)CCCCCCC(=O)NO)n[nH]c3c2)c1F	3.1
COc1ccc(-c2ccc3c(NC(=O)CCCCCCC(=O)NO)n[nH]c3n2)cc1	6
O=C(CCCCCCC(=O)Nc1n[nH]c2cc(-c3cccc(C(F)(F)F)c3)ccc12)NO	2.5
COc1cc(OC)cc(-c2ccc3c(NC(=O)CCCCCCC(=O)NO)n[nH]c3c2)c1	4.6
COc1ccc(F)c(-c2ccc3c(NC(=O)CCCCCCC(=O)NO)n[nH]c3c2)c1	3

I. O=C(CCCCCCC(=O)Nc1n[nH]c2cc(-c3ccsc3)ccc12)NO
II. O=C(CCCCCCC(=O)Nc1n[nH]c2cc(-c3cccc(Cl)c3)ccc12)NO
III. COc1cccc(-c2ccc3c(NC(=O)CCCCC(=O)NO)n[nH]c3c2)c1
Sort the compounds on IC50; start with the lowest figure. Form entry: ranked labels (order as requested).
II, III, I

---

biological target: Histone deacetylase 8 (Homo sapiens, UniProt Q9BY41); assay: Inhibition of recombinant human full length C-terminal His-tagged HDAC8 expressed in sf9 insect cells using Boc-Lys(TFA)-AM as substrate incubated for 60 mins by fluorescence assay
metric: IC50 (nM)

P. COc1ccc(F)c(-c2ccc3c(NC(=O)CCCCCCC(=O)NO)n[nH]c3c2)c1
Q. O=C(CCCCCCC(=O)Nc1n[nH]c2cc(-c3ccccc3F)ccc12)NO
R. COc1ccc(-c2ccc3c(NC(=O)CCCCCCC(=O)NO)n[nH]c3n2)cc1
With regard to IC50, arrange the entries in ascending order, please. Form entry: ranked labels (order as requested).
Q, P, R
(Q: 2.4 nM, P: 4.9 nM, R: 7.2 nM)

---

tested on: HeLa; experiment: cells; assay type: functional, cell-based; conditions: Homo sapiens, 72 h
Description: Antiproliferative activity against human HeLa cells assessed as reduction in cell viability after 72 hrs by MTT assay
pIC50: −log10 of the molar value.
metric: pIC50

In the examples that follow, each entry is paired with its recorded pIC50.
smiles_text	pIC50
O=C(CCCCCCC(=O)Nc1n[nH]c2cc(-c3ccncc3)ccc12)NO	5.16
COc1ccc(F)c(-c2ccc3c(NC(=O)CCCCCCC(=O)NO)n[nH]c3c2)c1	5.48

P. O=C(CCCCCCC(=O)Nc1n[nH]c2cc(-c3ccccc3F)ccc12)NO
Q. COc1cc(OC)cc(-c2ccc3c(NC(=O)CCCCCCC(=O)NO)n[nH]c3c2)c1
Quick check, higher pIC50 between P and Q ? Give the label of your selection.
Q
(Q: 5.14, P: 4.86)

---

Molecular target: Histone deacetylase 8 (Homo sapiens)
Sequence (Q9BY41 whole entry): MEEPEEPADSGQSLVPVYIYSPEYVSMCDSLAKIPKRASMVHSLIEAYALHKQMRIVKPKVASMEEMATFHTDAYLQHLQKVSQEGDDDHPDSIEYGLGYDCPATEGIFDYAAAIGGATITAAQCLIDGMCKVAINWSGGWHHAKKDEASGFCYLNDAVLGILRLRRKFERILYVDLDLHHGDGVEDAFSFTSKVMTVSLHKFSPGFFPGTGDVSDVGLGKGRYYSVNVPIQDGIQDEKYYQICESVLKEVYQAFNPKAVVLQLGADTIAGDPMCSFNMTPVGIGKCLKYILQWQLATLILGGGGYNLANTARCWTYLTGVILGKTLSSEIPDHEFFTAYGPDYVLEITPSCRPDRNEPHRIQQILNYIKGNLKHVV
Experiment: Inhibition of recombinant human full length C-terminal His-tagged HDAC8 expressed in sf9 insect cells using Boc-Lys(TFA)-AM as substrate incubated for 60 mins by fluorescence assay
pIC50: −log10 of the molar value.
metric: pIC50

smiles_text	reading
O=C(CCCCCCC(=O)Nc1n[nH]c2cc(-c3ccccc3Cl)ccc12)NO	8.40
COc1cccc(-c2ccc3c(NC(=O)CCCCCC(=O)NO)n[nH]c3c2)c1	8.35

1. COc1cccc(-c2ccc3c(NC(=O)CCCCCCC(=O)NO)n[nH]c3n2)c1
2. O=C(CCCCCCC(=O)Nc1n[nH]c2cc(-c3ccsc3)ccc12)NO
Quick check, higher pIC50 between 1 and 2 ? Give the label of your selection.
1

Source listed as ChEMBL document CHEMBL4765277.
